Taken from patent US20230234941A1.

Experiment: Solid solubility test (2 h and 24 h)
Format: physicochemical
Settings: FeSSIF-V1, 37 °C, pH 5, fessif, thermodynamic from solid, Test ES3: FeSSIF-V1 (pH 5.0), 24 h; read-out: Solubility measured at 24 h
Method: samples were weighed for each amorphous salt solid (equivalent to 20 mg of free base), and 10 mL of the following solvents were respectively added: 0.1N HCl solution (pH 1.0), 50 mM phosphate buffer (pH 4.5), FeSSIF-V1 (pH 5.0), FaSSIF-V1 (pH 6.5) and SGF (pH 2.0), […] The suspension was then centrifuged at 37° C., the supernatant was measured for solubility by HPLC, and the solid fraction was measured for XRPD. The target solubility was at least 2 mg (based on free base)/mL.
Measured Metric: solubility at 24 h

In [3]: df
Out[3]:
                         chemical_structure  measured_value
0  C=CC(=O)Nc1cc(Nc2ncnc(-c3cn(C)c4ccccc34)n2)c(OC)cc1N(C)CCN(C)C    > 2000 µg/mL

###

Assay: Solid solubility test (2 h and 24 h)
Assay type: physicochemical
Conditions: 37 °C, thermodynamic from solid, not achieved in some solvents / greater in various solvents; read-out: solubility in solvents that mimic physiological conditions
Measured Metric: solubility at 2 h

>>> df
                         chemical_structure  measured_value
0  C=CC(=O)Nc1cc(Nc2ncnc(-c3cn(C)c4ccccc34)n2)c(OC)cc1N(C)CCN(C)C    < 2000 µg/mL

###

Experiment: Solid solubility test (2 h and 24 h)
Format: physicochemical
Conditions: Test ES5: SGF (pH 2.0)
Measured Metric: pH measured at 2 h

>>> df
                                   molecule  measured_value
0  C=CC(=O)Nc1cc(Nc2ncnc(-c3cn(C)c4ccccc34)n2)c(OC)cc1N(C)CCN(C)C [Example 8]           (1.9)
1  C=CC(=O)Nc1cc(Nc2ncnc(-c3cn(C)c4ccccc34)n2)c(OC)cc1N(C)CCN(C)C [Example 1]           (2.4)
2  C=CC(=O)Nc1cc(Nc2ncnc(-c3cn(C)c4ccccc34)n2)c(OC)cc1N(C)CCN(C)C [Example 10]           (1.9)
3  C=CC(=O)Nc1cc(Nc2ncnc(-c3cn(C)c4ccccc34)n2)c(OC)cc1N(C)CCN(C)C [Example 3]           (1.8)
4  C=CC(=O)Nc1cc(Nc2ncnc(-c3cn(C)c4ccccc34)n2)c(OC)cc1N(C)CCN(C)C [Example 9]           (2.0)
5  C=CC(=O)Nc1cc(Nc2ncnc(-c3cn(C)c4ccccc34)n2)c(OC)cc1N(C)CCN(C)C [Example 6]           (2.1)
6  C=CC(=O)Nc1cc(Nc2ncnc(-c3cn(C)c4ccccc34)n2)c(OC)cc1N(C)CCN(C)C [Example 4]           (2.0)
7  C=CC(=O)Nc1cc(Nc2ncnc(-c3cn(C)c4ccccc34)n2)c(OC)cc1N(C)CCN(C)C [Example 5]           (1.8)
8  C=CC(=O)Nc1cc(Nc2ncnc(-c3cn(C)c4ccccc34)n2)c(OC)cc1N(C)CCN(C)C [Example 7]           (1.7)
9  C=CC(=O)Nc1cc(Nc2ncnc(-c3cn(C)c4ccccc34)n2)c(OC)cc1N(C)CCN(C)C [Example 2]           (2.0)
